Measured values drawn from paper PMC12304827 for this set.

# Test system: CYP3A
# Assay details: Itraconazole DDI study: ritlecitinib PK with/without itraconazole
# Format: in vivo, human
# Run conditions: human, plasma, oral, 30 mg
Quantity kind: AUC(0-inf) (ng·h/mL)

compound="C=CC(=O)N1C[C@H](Nc2ncnc3[nH]ccc23)CC[C@@H]1C [Ritlecitinib, ritlecitinib]" numeric_result=268

* * *

# Test system: CYP3A
# Assay details: Itraconazole DDI study: ritlecitinib PK with/without itraconazole
# Type: in vivo, human
# Run conditions: human, plasma, oral, 30 mg
Quantity kind: Cmax (ng/mL)

compound="C=CC(=O)N1C[C@H](Nc2ncnc3[nH]ccc23)CC[C@@H]1C [Ritlecitinib, ritlecitinib]" quantity_kind=Cmax measurement_units=ng/mL numeric_result=153
